Data provenance: patent US8541601B2

Format: physicochemical
study conditions: 672 h
assay endpoint: remaining rate of the active ingredient, 28 days (%)

compound | number
O=C(O)CCCCC1CCSS1 (stereo not drawn) [Thioctic acid] | 97.8
NC(CO)(CO)CO.O=C(O)CCCCC1CCSS1 (stereo not drawn) [Tromethamine thioctate, Tromethamine Thioctate] | 100
O=C(O)CCCCC1CCSS1 (racemic) [Piperazine dithioctate, Piperazine Dithioctate] | 100

====

Format: physicochemical
study conditions: 72 h
assay endpoint: remaining rate of the active ingredient, 3 days (%)

molecule | unit annotation | number
NC(CO)(CO)CO.O=C(O)CCCCC1CCSS1 (stereo not drawn) [Tromethamine thioctate, Tromethamine Thioctate] | % | 100
O=C(O)CCCCC1CCSS1 (stereo not drawn) [Thioctic acid] | % | 99.8
O=C(O)CCCCC1CCSS1 (racemic) [Piperazine dithioctate, Piperazine Dithioctate] | % | 100
